# System: U-937
# protocol-summary: Cytotoxicity against human U937 cells after 48 hrs by MTT assay
# Type: functional, cell-based
# measurement-setup: U-937, 48 h
pIC50: −log10 of the molar value.
readout: pIC50

Query: pIC50; subject: C=C[C@@]1(C)CC[C@H]2[C@@](O)(CC[C@H]3[C@@](C)(CO)CCC[C@@]32C)C1 < 4.40

State the recorded pIC50 for this entry: C=C[C@@]1(C)CC[C@H]2C(=CC[C@H]3C(C)(C)[C@@H](O)CC[C@]23C)C1 < 4.40

Recorded pIC50 for CC1=C2C=C[C@]34C[C@](C)(CC[C@@H]3[C@@]2(C)CCC1=O)C(=O)O4 , please? < 4.40

What value of measured pIC50 is listed for CC(C)c1cc2c(cc1O)C[C@@H](O)[C@H]1[C@@](C)(CO)CCC[C@]21C ? < 4.40

Looking for the measured pIC50 of C=C[C@@]1(C)CC[C@H]2C(=CC[C@H]3C(C)(C)C(=O)CC[C@]23C)C1 , can you help? < 4.40

I would be grateful if you could share the reported pIC50 for C=C[C@]1(C)C=C2CC[C@H]3[C@H](C)C(=O)CC[C@]3(C)[C@H]2CC1 . < 4.40

What does the data say about its pIC50? Entry: CC[C@@]1(O)C(=O)OCc2c1cc1n(c2=O)Cc2cc3cc(O)ccc3nc2-1 [HYDROXYCAMPTOTHECIN] 6.96

Look up pIC50 for this compound: CC(C)c1cc2c(cc1O)[C@@]1(C)CCCC(C)(C)[C@@H]1CC2 4.71

====

# System: HL-60
# protocol-summary: Cytotoxicity against human HL60 cells after 48 hrs by MTT assay
# Type: functional, cell-based
# measurement-setup: HL-60, 48 h
readout: IC50

Give its IC50 value. Item: C=C[C@@]1(C)CC[C@H]2[C@@](O)(CC[C@H]3C(C)(C)C(=O)CC[C@@]32C)C1 > 40 µM

Would you kindly share the measured IC50 for C=C[C@@]1(C)CCC2=C(CC[C@H]3C(C)(C)[C@@H](O)CC[C@]23C)C1 ? > 40 µM

Which IC50 value is on record for C=C[C@]1(C)C=C2CC[C@H]3C(C)(C)C(=O)CC[C@]3(C)[C@H]2CC1 ? > 40 µM

Which IC50 is reported for this molecule? CC[C@@]1(O)C(=O)OCc2c1cc1n(c2=O)Cc2cc3cc(O)ccc3nc2-1 [HYDROXYCAMPTOTHECIN] 0.04 µM

// query IC50 value for entry C=C[C@@]1(C)CC[C@H]2[C@@](O)(CC[C@H]3[C@@](C)(CO)CCC[C@@]32C)C1 [AKHDARDIOL] > 40 µM

Fill blank: measured IC50 of the molecule CC(C)c1c(O)ccc2c1CC[C@H]1[C@@](C)(CO)C(=O)C=C[C@]21C [TROGOPTEROID G] is ____. > 40 µM

Given the molecule C=C[C@@]1(C)CC[C@H]2C(=CC[C@H]3C(C)(C)[C@@H](O)CC[C@]23C)C1 [ISOPIMARANE] , what is its reported IC50? > 40 µM

Look up IC50 for this molecule: CC(C)c1cc2c(cc1O)[C@@]1(C)CCCC(C)(C)[C@@H]1CC2 [FERRUGINOL] > 40 µM

Data request, read-out IC50, for C=C[C@]1(C)C=C2CC[C@H]3[C@H](C)C(=O)CC[C@]3(C)[C@H]2CC1 > 40 µM

Return reported IC50; argument: CC(C)c1c(O)ccc2c1CC[C@H]1C(C)(C)[C@@H](O)CC[C@]21C 24.3 µM

Can you share its IC50? I mean this molecule: CC1=C2C=C[C@]34C[C@](C)(CC[C@@H]3[C@@]2(C)CCC1=O)C(=O)O4 [TROGOPTEROID A] > 40 µM
